The origin of these recorded values is paper PMC4552634.

Test system: P. falciparum stage V gametocytes
Design: BacTiter-Glo ATP luminescence viability of purified stage V gametocytes in 384-well plates, per cent inhibition versus DMSO
Details: 48 h, 5 µM; inhibitor
In all, about 13,000 compounds went through this assay and about 3,200 (25%) showed an effect of 50% or more. The list shows a part of the results.
Recorded % Inhibition, one value per entry.
quantity: % Inhibition

> print(dat)
                                   molecule      quantity  reported.result
1  Cn1nc(-c2cccc(CNCc3ccccc3)c2)c2cnc(NC3CCCC3)nc21  % Inhibition          -3.994%
2  CN1CCC(NCc2cccc(-c3nn(C)c4nc(NC5CCCC5)ncc34)c2)CC1  % Inhibition           110.3%
3  CN1CCC(NCc2cccc(-c3cnc(NCc4ccccc4)nc3)c2)CC1  % Inhibition            58.9%
4  CN1CCC(N(Cc2ccc(-c3cnc(NCc4ccccc4)nc3)cc2)S(=O)(=O)c2ccccc2)CC1  % Inhibition           31.68%
5  C=CCn1c(C)cc(C(=O)COc2ccc(S(=O)(=O)N3CCOCC3)cc2[N+](=O)[O-])c1C  % Inhibition            33.1%
6  Cn1nc(-c2cccc(CNCCc3cccs3)c2)c2cnc(NC3CCCC3)nc21  % Inhibition           12.01%
7  CN1CCC(NCc2ccc(-c3cnc(NCc4ccccc4)nc3)cc2)CC1  % Inhibition           82.56%
8  O=C(CCCCCNC(=O)c1ccc(O)c(-c2ccc(Cl)c(Cl)c2)c1)NC1CCCc2ccccc21 (centres unmarked)  % Inhibition           4.143%

* * *

System: P. falciparum stage V gametocytes
Set-up: BacTiter-Glo ATP luminescence viability of purified stage V gametocytes in 384-well plates, per cent inhibition versus DMSO
Conditions: 48 h, 5 µM; inhibitor
Out of some 13,000 compounds screened, about 3,200 (25%) showed an effect of 50% or more. Some of the results follow.
quantity: % Inhibition

> print(dat)
                                    compound  reported.result
 1  O=C(Nc1ccc([N+](=O)[O-])cc1Cl)c1cc2ccccc2cc1O           12.28%
 2  COc1ccc(C2CCC(NCCCCNC(=O)c3ccc(NC(=O)c4ccc(Cl)cc4)cc3)CC2)cc1 (stereo not drawn)            60.8%
 3  CCN(CC)CCCC(C)N=C(Nc1ccc(C#N)cc1O)Nc1ccccc1Br (stereo not drawn)           34.96%
 4  COc1cc(CCNC(=O)Cc2ccc3ccccc3c2)ccc1OCc1ccccc1           57.44%
 5  COc1cc(C2CCN(CCCCNC(=O)c3ccc(NC(=O)c4ccc(Cl)c(Cl)c4)cc3)CC2)ccc1OC(C)C           111.4%
 6  CC(C)Cc1ccc(N2CCN(CCCCNC(=O)c3ccc(NC(=O)c4ccc(Cl)c(Cl)c4)cc3)CC2)cc1          -11.88%
 7  COc1cccc(C(=O)NCCc2cccc(Cl)c2)c1OCc1ccccc1          -13.17%
 8  Fc1ccc2[nH]c(-c3cccc(-c4cccc(CNCC5CCCO5)c4)c3)nc2c1.O=C(O)C(F)(F)F (stereo not drawn)          -32.27%
 9          COc1ccc2nc3cc(Cl)ccc3c(N)c2c1.Cl           124.4%
10  CC(CN1CCN(C)CC1)C(=O)Nc1ccc(-c2cccc(-c3nc4ccc(F)cc4[nH]3)c2)cc1 (stereo not drawn)           97.96%
11  Fc1ccc(Nc2ccnc3cc(-c4cccc(CNCCN5CCOCC5)c4)ccc23)c(Cl)c1           41.76%
12  CC(CN1CCN(C)CC1)C(=O)Nc1cccc(-c2ccc(-c3nc4ccc(F)cc4[nH]3)cc2)c1 (stereo not drawn)           77.49%
13      c1ccc(Oc2cccc(Nc3ccnc4ccccc34)c2)cc1           14.27%
14  Oc1ccc2[nH]c(-c3cccc(F)c3)nc2c1CN1CCC(N2CCCC2)CC1          -60.35%
15              COc1ccc(C(=O)O)cc1OCc1ccccc1           4.056%
16    Oc1ccc(-c2cncc(NCc3ccc(F)c(F)c3)c2)cc1           23.22%
17  COC(=O)c1ccc2c(c1)nc(Nc1cccc(F)c1)n2CC(O)c1ccccn1 (stereo not drawn)           -5.24%
18  COc1cccc(C2CCN(CCCCNC(=O)c3ccc(NC(=O)c4ccc(Cl)cc4)cc3)CC2)c1           21.15%
19  CN1CCN(CCCN(Cc2ccc(-c3cccc(CNCc4ccc5c(c4)OCO5)c3)cc2)C(=O)NCCc2ccccc2)CC1           67.47%
20  CC(CN(C)C)C(=O)Nc1ccc(-c2ccc(-c3nc4ccc(F)cc4[nH]3)cc2)cc1 (stereo not drawn)           6.212%
21  Cc1cccc(CN2CCCN(Cc3ccc(C(=O)Nc4ccc(C)c(F)c4)cc3)CC2)c1          -4.425%
22  COC(=O)c1cccc(CNCc2cccc(-c3ccc(-c4nc5ccccc5[nH]4)s3)c2)c1.O=C(O)C(F)(F)F         -0.1401%
23  CN1CCN(CCCN(Cc2ccc(-c3ccc(CNCc4ccc5c(c4)OCO5)cc3)cc2)C(=O)Nc2ccccc2)CC1           58.83%
24  COc1ccc2nc3cc(Cl)ccc3c(Nc3ccc(Oc4ccc(Nc5c6ccc(Cl)cc6nc6ccc(OC)cc56)cc4)cc3)c2c1.Cl          -12.74%
25  CC(CN1CCN(C)CC1)C(=O)Nc1ccc(-c2cccc(-c3nc4ccc(C(F)(F)F)cc4[nH]3)c2)cc1 (stereo not drawn)           40.39%
26  Clc1ccc(CNc2ccnc(NCc3ccc4c(c3)OCCCO4)n2)c(Cl)c1           30.31%
27  c1cc(Cc2ccc(Nc3c4ccccc4nc4ccccc34)cc2)cc(Nc2c3ccccc3nc3ccccc23)c1           84.71%
28    CCN(CC)CCNc1c2ccc(Cl)cc2nc2ccc(OC)nc12          -10.21%
29         COc1ccc2nc3cc(Cl)ccc3c(NCCCO)c2c1           20.12%
30  CC(CN(C)C)C(=O)Nc1cccc(-c2ccc(-c3nc4ccc(F)cc4[nH]3)cc2)c1 (stereo not drawn)          -31.14%
31  CNS(=O)(=O)c1ccc(NC(=O)c2cc(-c3cccnc3)nc3ccc(Br)cc23)cc1          -3.498%
32          Cc1ccc(Nc2nc(N)c3ccccc3n2)cc1.Cl           30.09%
33  c1ccc(Oc2ccc(Nc3ccnc4cc(-c5ccc(CNCCN6CCOCC6)o5)ccc34)cc2)cc1           12.11%
